Target: Polymerase basic protein 2 (Influenza A virus (strain A/Puerto Rico/8/1934 H1N1), UniProt P03428)
Sequence (P03428 whole entry): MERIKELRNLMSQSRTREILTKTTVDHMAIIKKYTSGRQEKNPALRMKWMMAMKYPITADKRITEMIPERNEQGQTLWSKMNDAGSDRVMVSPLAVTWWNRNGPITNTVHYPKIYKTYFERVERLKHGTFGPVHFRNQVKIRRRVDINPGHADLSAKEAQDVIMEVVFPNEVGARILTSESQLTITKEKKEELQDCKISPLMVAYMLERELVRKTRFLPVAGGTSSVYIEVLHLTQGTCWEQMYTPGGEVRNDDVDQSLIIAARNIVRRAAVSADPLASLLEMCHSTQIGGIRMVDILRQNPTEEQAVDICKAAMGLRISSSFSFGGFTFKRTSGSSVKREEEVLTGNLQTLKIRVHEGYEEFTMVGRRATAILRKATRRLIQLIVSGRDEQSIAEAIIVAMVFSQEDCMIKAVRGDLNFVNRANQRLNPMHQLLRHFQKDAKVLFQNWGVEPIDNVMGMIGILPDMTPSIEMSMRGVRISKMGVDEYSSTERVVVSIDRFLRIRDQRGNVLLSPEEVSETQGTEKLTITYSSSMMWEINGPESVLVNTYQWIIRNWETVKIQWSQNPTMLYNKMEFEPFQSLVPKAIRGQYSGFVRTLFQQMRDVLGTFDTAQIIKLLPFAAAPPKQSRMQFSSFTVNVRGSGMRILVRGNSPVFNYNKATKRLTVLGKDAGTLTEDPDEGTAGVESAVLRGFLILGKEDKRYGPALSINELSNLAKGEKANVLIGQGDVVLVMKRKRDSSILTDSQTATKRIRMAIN
Experiment: Binding affinity to influenza A virus (A/Puerto Rico/8/1934(H1N1)) PB2 by competition binding fluorescence polarization (FP) assay
MEASUREMENT_NAME: pKd
Units for pKd: none; it is -log10 of a concentration expressed in mol/L.

Query (molecule): CC(O)C(=O)N[C@@H]1CCC[C@H](Nc2nc(-c3c[nH]c4ncc(Cl)cc34)ncc2F)C1 (stereo not given in full) ; field requested: pKd 6.40

Record: COCC[C@]1(C(=O)O)CCCC[C@@H]1Nc1nc(-c2c[nH]c3ncc(Cl)cc23)ncc1F (racemic) 8.05

Record: N[C@@H]1CCCC[C@H]1Nc1nc(-c2c[nH]c3ncc(Cl)cc23)ncc1F 5.31

Record: O=C(N[C@@H]1CCC[C@H](Nc2nc(-c3c[nH]c4ncc(Cl)cc34)ncc2F)C1)N1CCOCC1 6.30

Record: Cn1cncc1C(=O)N[C@@H]1CCC[C@H](Nc2nc(-c3c[nH]c4ncc(F)cc34)ncc2F)C1 7.05

Record: NC(=O)CN1CCC[C@H](Nc2nc(-c3c[nH]c4ncc(Cl)cc34)ncc2F)C1 7.10

Record: N[C@H]1CCCC[C@@H]1Nc1nc(-c2c[nH]c3ncc(Cl)cc23)ncc1F 7.05

Record: Fc1cnc(-c2c[nH]c3ncc(Cl)cc23)nc1NC1CCCC1 6.15

Record: OC[C@H](O)CN1CCC[C@H](Nc2nc(-c3c[nH]c4ncc(Cl)cc34)ncc2F)C1 6.40

Record: O=C(CN1CCOCC1)N[C@@H]1CCC[C@H](Nc2nc(-c3c[nH]c4ncc(Cl)cc34)ncc2F)C1 6.70

Record: C[C@H](Nc1nc(-c2c[nH]c3ncc(Cl)cc23)ncc1F)C(=O)N(C)C 7.00

Record: O=C(N[C@@H]1CCC[C@H](Nc2nc(-c3c[nH]c4ncc(F)cc34)ncc2F)C1)N1CCOCC1 6.40

Record: CS(=O)(=O)N1CCCC[C@@H]1CNc1nc(-c2c[nH]c3ncc(Cl)cc23)ncc1F 7.00

Record: O=C(NC1CCOCC1)N[C@@H]1CCC[C@H](Nc2nc(-c3c[nH]c4ncc(F)cc34)ncc2F)C1 6.40

Record: CC(=O)N1CCC[C@H](CNc2nc(-c3c[nH]c4ncc(Cl)cc34)ncc2F)C1 6.52

Record: CN(C)C(=O)N[C@@H]1CCC[C@H](Nc2nc(-c3c[nH]c4ncc(F)cc34)ncc2F)C1 6.40
